Values from patent US20210355194A1

target: T1, SARS-CoV-2 S1 protein (SARS-CoV-2, UniProt P0DTC2 16-685); test: phage ELISA screen on S1, mean
T1 construct: also called SARS-CoV-2 Spike Glycoprotein S1; S1 (subunit 1)
ELISA(Avg) strictly less than 20 fold over background = condition met. Otherwise condition not met.

Examples with answers:
| binder | discrete-label |
| --- | --- |
| 2-5 (antibody, V domains shown, also called variant 2-5) VH: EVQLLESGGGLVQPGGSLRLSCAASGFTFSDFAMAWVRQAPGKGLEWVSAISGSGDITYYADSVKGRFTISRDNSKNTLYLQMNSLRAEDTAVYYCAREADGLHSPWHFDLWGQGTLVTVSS VL: DIQMTQSPSSLSASVGDRVTITCRASQSIHTYLNWYQQKPGKAPKLLIYAASALASGVPSRFSGSGSGTDFTLTISSLQPEDFATYYCQQSYSAPPYTFGQGTKVEIK | condition not met |
| 2-13 (antibody, V domains shown, also called variant 2-13) VH: EVQLLESGGGLVQPGGSLRLSCAASGFTFSDYPMNWVRQAPGKGLEWVSAISGSGDNTYYADSVKGRFTISRDNSKNTLYLQMNSLRAEDTAVYYCVRHDEYSFDYWGQGTLVTVSS VL: DIQMTQSPSSLSASVGDRVTITCRASQSIDTYLNWYQQKPGKAPKLLIYGASALESGVPSRFSGSGSGTDFTLTISSLQPEDFATYYCQQSHSAPPYFFGQGTKVEIK | condition met |
| 2-2 (antibody, V domains shown, also called variant 2-2) VH: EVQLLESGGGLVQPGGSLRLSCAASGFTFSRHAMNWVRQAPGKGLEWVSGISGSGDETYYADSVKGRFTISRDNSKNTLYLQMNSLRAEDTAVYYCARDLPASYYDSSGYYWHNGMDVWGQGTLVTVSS VL: DIQMTQSPSSLSASVGDRVTITCRASQTINTYLNWYQQKPGKAPKLLIYSASTLQSGVPSRFSGSGSGTDFTLTISSLQPEDFATYYCQQSYSTFTFGQGTKVEIK | condition not met |
| 2-19 (antibody, V domains shown, also called variant 2-19) VH: EVQLLESGGGLVQPGGSLRLSCAASGFTFSSYTMSWVRQAPGKGLEWVSVISGSGGSTYYADSVKGRFTISRDNSKNTLYLQMNSLRAEDTAVYYCAREGYRDYLWYFDLWGQGTLVTVSS VL: DIQMTQSPSSLSASVGDRVTITCTGTSTDVGSYNLVSWYQQKPGKAPKLLIYEGTKRPSGVPSRFSGSGSGTDFTLTISSLQPEDFATYYCCSYAGSYTSVVFGQGTKVEIK | condition not met |
| 2-2 (second entry, printed after 2-19) (antibody, V domains shown) VH: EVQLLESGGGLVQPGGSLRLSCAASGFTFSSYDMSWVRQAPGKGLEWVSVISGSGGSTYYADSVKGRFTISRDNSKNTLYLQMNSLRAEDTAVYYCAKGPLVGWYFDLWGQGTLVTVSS VL: DIQMTQSPSSLSASVGDRVTITCTGTSSNVGSYNLVSWYQQKPGKAPKLLIYEGTKRPSGVPSRFSGSGSGTDFTLTISSLQPEDFATYYCCSYAGSSSFVVFGQGTKVEIK | condition met |

From here, focus on the item given below.
Request: Is it true that ELISA(Avg) reported for 2-18 (antibody, V domains shown, also called variant 2-18) VH: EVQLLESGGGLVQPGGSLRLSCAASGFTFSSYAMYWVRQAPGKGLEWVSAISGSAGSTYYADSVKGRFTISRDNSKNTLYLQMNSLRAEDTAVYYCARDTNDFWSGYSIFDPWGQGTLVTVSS VL: DIQMTQSPSSLSASVGDRVTITCTGTSSDIGSYNLVSWYQQKPGKAPKLLIYEGTKRPSGVPSRFSGSGSGTDFTLTISSLQPEDFATYYCCSYAGSRTYVFGQGTKVEIK is less than 20 fold over background?
Response: condition not met
